# Test system: LoVo (human colorectal adenocarcinoma)
# Protocol: Cytotoxicity on LoVo cells, quantitative suspension test according to EN 14476
# Assay type: cell-based
# Details: Homo sapiens, 96 h, observed 4 days, aqua media
Measured endpoint: pIC50
Numbers only, as −log10 of the molar value.

Given item Cc1ccc2ccc3ccc(C)nc3c2n1 , the value recorded as its pIC50 is 3.44
